Numbers sourced from paper PMC6271220.

Tested on: HepG2 (liver carcinoma cell line)
Assay: In vivo tumor xenograft model, HepG2 tumor-bearing mice
Design: species or system Kunming mice
Settings: 60 mg/kg/day oral gavage, ten days
ASSAY_READOUT: Body weight End
Remember to follow the number with its unit.

Req: Request: Body weight End, test system HepG2 (liver carcinoma cell line), entry CC1(C)[C@@H](O[C@@H]2O[C@H](C(=O)O)[C@@H](O)[C@H](O)[C@H]2O)CC[C@]2(C)[C@H]3C(=O)C=C4[C@H]5C[C@@](C)(C(=O)O)CC[C@]5(C)CC[C@@]4(C)[C@]3(C)CC[C@@H]12 [18α-GAMG]
Resp: 27.02 ± 2.10 g

Req: Also check CC1(C(=O)O)CCC2(C)CCC3(C)C(=CC(=O)C4C5(C)CCC(OC6OC(C(=O)O)C(O)C(O)C6OC6OC(C(=O)O)C(O)C(O)C6O)C(C)(C)C5CCC43C)C2C1 (stereo not drawn) [18α-GA, 18α-Glycyrrhizin]
Resp: 26.08 ± 1.26 g

Req: Also check CC1(C)[C@@H](O[C@@H]2O[C@H](C(=O)O)[C@@H](O)[C@H](O)[C@H]2O)CC[C@]2(C)[C@H]3C(=O)C=C4[C@@H]5C[C@@](C)(C(=O)O)CC[C@]5(C)CC[C@@]4(C)[C@]3(C)CC[C@@H]12 [18β-GAMG]
Resp: 27.8 ± 1.57 g

Req: Also check CC1(C)[C@@H](O[C@H]2O[C@H](C(=O)O)[C@@H](O)[C@H](O)[C@H]2O[C@@H]2O[C@H](C(=O)O)[C@@H](O)[C@H](O)[C@H]2O)CC[C@]2(C)[C@H]3C(=O)C=C4[C@@H]5C[C@@](C)(C(=O)O)CC[C@]5(C)CC[C@@]4(C)[C@]3(C)CC[C@@H]12 [18β-GA, Glycyrrhizin]
Resp: 26.94 ± 2.05 g

---

Tested on: HepG2 (liver carcinoma cell line)
Assay: In vivo tumor xenograft model, HepG2 tumor-bearing mice
Design: species or system Kunming mice
Conditions: 60 mg/kg/day oral gavage, ten days
ASSAY_READOUT: Tumor weight (g)
Give the value, in units of g, as a plain number.

Req: So what's the measured Tumor weight for this one? CC1(C)[C@@H](O[C@H]2O[C@H](C(=O)O)[C@@H](O)[C@H](O)[C@H]2O[C@@H]2O[C@H](C(=O)O)[C@@H](O)[C@H](O)[C@H]2O)CC[C@]2(C)[C@H]3C(=O)C=C4[C@@H]5C[C@@](C)(C(=O)O)CC[C@]5(C)CC[C@@]4(C)[C@]3(C)CC[C@@H]12
Resp: 1.26

Req: Also check CC1(C)[C@@H](O[C@@H]2O[C@H](C(=O)O)[C@@H](O)[C@H](O)[C@H]2O)CC[C@]2(C)[C@H]3C(=O)C=C4[C@@H]5C[C@@](C)(C(=O)O)CC[C@]5(C)CC[C@@]4(C)[C@]3(C)CC[C@@H]12
Resp: 1.20

Req: Also check CC1(C)[C@@H](O[C@@H]2O[C@H](C(=O)O)[C@@H](O)[C@H](O)[C@H]2O)CC[C@]2(C)[C@H]3C(=O)C=C4[C@H]5C[C@@](C)(C(=O)O)CC[C@]5(C)CC[C@@]4(C)[C@]3(C)CC[C@@H]12
Resp: 0.98

Req: Also check CC1(C(=O)O)CCC2(C)CCC3(C)C(=CC(=O)C4C5(C)CCC(OC6OC(C(=O)O)C(O)C(O)C6OC6OC(C(=O)O)C(O)C(O)C6O)C(C)(C)C5CCC43C)C2C1 (stereo not shown)
Resp: 1.22
